Tested on: SF-268 CNS
test_name: NCI tumour cell line growth inhibition, 48 h; in the data active = GI50 below about 0.43 µM; inactive = the rest
Result category, one only: yes for active, no for inactive

Short answer needed: outcome of this test for "CC(=O)/C=C/C1=C(c2ccsc2)c2ccccc2CC1" ?
no

Short answer needed: outcome of this test for "CC[O-].CC[O-].O=C([CH-]C(=O)c1ccccc1)c1ccccc1.O=C([CH-]C(=O)c1ccccc1)c1ccccc1.[Ti+4]" ?
no

Short answer needed: outcome of this test for "CN1CCN(c2ccc3nc4c(nc3c2C(F)(F)F)C(=O)c2ncccc2C4=O)CC1" ?
no

Short answer needed: outcome of this test for COc1ccc(-n2sc(=O)n(Cc3ccc(COC(=O)C(C)c4ccc(CC(C)C)cc4)cc3)c2=O)cc1 (stereo not given) ?
no

Short answer needed: outcome of this test for COc1ccc(NC(=O)O[C@H]2[C@H](O[C@H]3[C@@H](O)COC(O[C@H]4C[C@H]5[C@@H]6CC=C7C[C@@H](O)CC[C@]7(C)[C@H]6CC[C@]5(C)[C@H]4[C@H](C)C(=O)CCC(C)C)[C@@H]3OC(C)=O)OC[C@@H](O)[C@@H]2O)cc1 (stereo not given in full) ?
yes

Short answer needed: outcome of this test for "COc1cccc(Nc2nccc(Nc3ccc4[nH]ncc4c3)n2)c1" ?
no

Short answer needed: outcome of this test for "COC(=O)Nc1nc2ccc(Sc3ccccc3)cc2[nH]1" ?
no

Short answer needed: outcome of this test for "Cc1cc2nc3c4ccccc4n(CCN(C)C)c3nc2cc1C" ?
no

Short answer needed: outcome of this test for CC1(C)CC2CC(C)(CN2c2ncnc3ccc(Br)cc23)C1 (stereo not given) ?
no

Short answer needed: outcome of this test for "ClC1=C(Cl)C(Cl)=C(Cl)C1=Cc1ccc(Cl)cc1" ?
yes

Short answer needed: outcome of this test for "CC(C)CNc1nc(N=[N+]=[N-])nc(NCC(C)C)n1" ?
no

Short answer needed: outcome of this test for Cc1cc2c(C(C)C)c(O)c(O)c(C=O)c2c(O)c1-c1c(C)cc2c(C(C)C)c(O)c(O)c(C=O)c2c1O (tested in a mixture with another compound) ?
no

Short answer needed: outcome of this test for "C[C@@H]1CN2[C@H]3[C@@H]1CC[C@]31CCC(=O)O[C@]1(C)[C@@H]1CC[C@H]3CCC=C3[C@@H]12" ?
no

Short answer needed: outcome of this test for "CCN(CC)c1ccc2nc3c4ccccc4c(=NC(=O)c4ccccc4-c4c5ccc(N(CC)CC)cc5[o+]c5cc(N(CC)CC)ccc45)cc-3oc2c1" ?
no

Short answer needed: outcome of this test for C=C1C(=O)OC2CC3(C)OC3C3OC3C3=CC(OC3=O)C12 (stereo not given) ?
no

----------
Test system: MALME-3M melanoma
test_name: NCI tumour cell line growth inhibition, 48 h
For each record, write down the corresponding TGI.

Requested field: TGI. Item: "CO[C@@]12CC(=O)/C(=C(O)\C=C\c3ccccc3)C(=O)[C@]1(OC)Cc1ccccc1O2"
> 100 µM

Requested field: TGI. Item: "CCC[CH2][Sn]1([CH2]CCC)[O]C(=O)c2cc(C)ccc2[O]1"
0.938 µM

Requested field: TGI. Item: "N#CC(C#N)=Cc1ccc(-c2ccc(-c3nc4ccccc4o3)cc2)o1"
> 100 µM

----------
Tested on: CCRF-CEM leukemia
test_name: NCI tumour cell line growth inhibition, 48 h; in the data active = GI50 below about 0.43 µM; inactive = the rest
Result category, one only: active, inactive

Short answer needed: outcome of this test for C=C1C(=O)OC2CC3(C)OC3C3OC3C3=CC(OC3=O)C12 (stereo not given) ?
inactive

Short answer needed: outcome of this test for CCN1C(=O)N(CC)C2C1NN=c1s/c(=C\c3ccccc3)c(=O)n12 (stereo not given) ?
active

Short answer needed: outcome of this test for "C=C1CO[C@@H]2C[C@@H]1CC/C(C)=C/CC/C(C)=C/CC[C@@]2(C)O" ?
inactive

Short answer needed: outcome of this test for "Cc1ccc(-c2cc(/C=N/O)on2)cc1" ?
inactive

Short answer needed: outcome of this test for "CNCCOc1nc2c3cnccc3cc(-c3cc(OC)c(OC)c(OC)c3)c2c2ccncc12" ?
active

Short answer needed: outcome of this test for "N#Cc1c(Oc2ccc(F)c(NC(=O)Cc3cccc(C(F)(F)F)c3)c2)ccc2nc(NC(=O)C3CC3)sc12" ?
inactive

Short answer needed: outcome of this test for CCOC(=O)CNC(=O)C(CSC(=O)N(C)O)NC(=O)CCC(N)C(=O)O (stereo not given) ?
inactive

Short answer needed: outcome of this test for COc1ccc(C2C3=C(COC3=O)N(CCO)c3cc4c(cc32)OCCO4)cc1OC (stereo not given) ?
inactive

Short answer needed: outcome of this test for "CC(=O)N[C@@H](Cc1ccc(OP(=O)(O)O)cc1)C(=O)N[C@H]1CCC(=O)N2CCC[C@@H](C(=O)NCc3ccc(O)cc3)N2C1=O" ?
inactive

Short answer needed: outcome of this test for "N#CSCC(=O)c1ccc(Cl)cc1" ?
inactive

Short answer needed: outcome of this test for "CCCCCc1c(C)[nH]c(/C=c2\[nH]/c(=C3/C=c4ccccc4=N3)cc2OC)c1C" ?
active

Short answer needed: outcome of this test for COc1ccc(-n2sc(=O)n(Cc3ccc(COC(=O)C(C)c4ccc(CC(C)C)cc4)cc3)c2=O)cc1 (stereo not given) ?
inactive

Short answer needed: outcome of this test for CCCCCCC1N=C(N)N=C(N)N1c1ccc(Cl)cc1 (stereo not given) ?
inactive

Short answer needed: outcome of this test for "CS[C@@]1(C(=O)Nc2ccc3[nH]nc(-c4ccc(OC(C)C)nc4)c3c2)CCN(CC(=O)N2CC=C(c3ccc(-c4ncn(C)n4)cc3)CC2)C1" ?
inactive

Short answer needed: outcome of this test for "N#CC[C@H](C1CCCC1)n1cc(-c2ncnc3[nH]ccc23)cn1" ?
inactive
